Data provenance is the supplement of paper PMC10627819.

Reported Bliss interaction score is given for each of the following molecules.
tested on: S. aureus Newman; assay: Bliss interaction score (quartile over a dose matrix) (fitness difference); higher = more antagonism (negative = synergy)

molecule	Bliss interaction score
CN[C@@H]1[C@H](O)[C@H](NC)[C@H]2O[C@@]3(O)C(=O)C[C@@H](C)O[C@H]3O[C@@H]2[C@H]1O [Spectinomycin] + Oc1cc(Cl)ccc1Oc1ccc(Cl)cc1Cl [Triclosan]	0.0626
CC[C@H]1OC(=O)[C@H](C)[C@@H](O[C@H]2C[C@@](C)(OC)[C@@H](O)[C@H](C)O2)[C@H](C)[C@@H](O[C@@H]2O[C@H](C)C[C@H](N(C)C)[C@H]2O)[C@](C)(O)C[C@@H](C)C(=O)[C@H](C)[C@@H](O)[C@]1(C)O [Erythromycin] + CC(=O)O[C@H]1C[C@@]2(C)[C@@H](C[C@@H](O)[C@H]3[C@@]4(C)CC[C@@H](O)[C@@H](C)[C@@H]4CC[C@@]32C)/C1=C(\CCC=C(C)C)C(=O)O [Fusidic acid]	-0.0241
CN[C@@H]1[C@H](O[C@H]2[C@H](O[C@H]3[C@H](O)[C@@H](O)[C@H](N=C(N)N)[C@@H](O)[C@@H]3N=C(N)N)O[C@@H](C)[C@]2(O)C=O)O[C@@H](CO)[C@H](O)[C@H]1O [Streptomycin] + COc1cc(Cc2cnc(N)nc2N)cc(OC)c1OC [Trimethoprim]	0.0902
CO[C@@]12[C@H](COC(N)=O)C3=C(C(=O)C(C)=C(N)C3=O)N1C[C@@H]1N[C@@H]12 [MitomycinC] + CC[C@H]1OC(=O)[C@H](C)C(=O)[C@H](C)[C@@H](O[C@@H]2O[C@H](C)C[C@H](N(C)C)[C@H]2O)[C@](C)(OC)C[C@@H](C)C(=O)[C@H](C)[C@H]2N(CCCCn3cnc(-c4cccnc4)c3)C(=O)O[C@]12C [Telithromycin]	-0.0269
CN[C@@H]1[C@H](O)[C@H](NC)[C@H]2O[C@@]3(O)C(=O)C[C@@H](C)O[C@H]3O[C@@H]2[C@H]1O [Spectinomycin] + CN[C@H](CC(C)C)C(=O)N[C@H]1C(=O)N[C@@H](CC(N)=O)C(=O)N[C@H]2C(=O)N[C@H]3C(=O)N[C@H](C(=O)N[C@H](C(=O)O)c4cc(O)cc(O)c4-c4cc3ccc4O)[C@H](O)c3ccc(c(Cl)c3)Oc3cc2cc(c3O[C@@H]2O[C@H](CO)[C@@H](O)[C@H](O)[C@H]2O[C@H]2C[C@](C)(N)[C@H](O)[C@H](C)O2)Oc2ccc(cc2Cl)[C@H]1O [Vancomycin]	0.0699
CC[C@H]1OC(=O)[C@H](C)[C@@H](O[C@H]2C[C@@](C)(OC)[C@@H](O)[C@H](C)O2)[C@H](C)[C@@H](O[C@@H]2O[C@H](C)C[C@H](N(C)C)[C@H]2O)[C@](C)(O)C[C@@H](C)C(=O)[C@H](C)[C@@H](O)[C@]1(C)O [Erythromycin] + C[C@H]1COc2c(N3CCN(C)CC3)c(F)cc3c(=O)c(C(=O)O)cn1c23 [Levofloxacin]	0.0478

---

system: S. aureus Newman; experiment: fitness (endpoint OD595 vs no drug) (fraction); higher = more growth; conditions: first compound 18.75 µg/mL; partner 0.25 µg/mL; main component drawn

compound	fitness
CC[C@H](C)[C@H](N)C1=N[C@H](C(=O)N[C@@H](CC(C)C)C(=O)N[C@H](CCC(=O)O)C(=O)N[C@H](C(=O)N[C@H]2CCCCNC(=O)[C@H](CC(N)=O)NC(=O)[C@@H](CC(=O)O)NC(=O)[C@H](Cc3cnc[nH]3)NC(=O)[C@@H](Cc3ccccc3)NC(=O)[C@H]([C@@H](C)CC)NC(=O)[C@@H](CCCN)NC2=O)[C@@H](C)CC)CS1 [Bacitracin] + CC1=C\[C@@H](O)CC(=O)Cc2nc(co2)C(=O)N2CCC=C2C(=O)O[C@H](C(C)C)[C@H](C)/C=C/C(=O)NC\C=C\1 [Virginiamycin M1]	0.705

---

test system: S. aureus Newman; assay: Bliss interaction score (quartile over a dose matrix) (fitness difference); higher = more antagonism (negative = synergy)

compound	Bliss interaction score
CC(=O)NC[C@H]1CN(c2ccc(N3CCOCC3)c(F)c2)C(=O)O1 [Linezolid] + C[n+]1ccc(-c2cc[n+](C)cc2)cc1 [Paraquat]	-0.0403
CC[C@H]1OC(=O)[C@H](C)[C@@H](O[C@H]2C[C@@](C)(OC)[C@@H](O)[C@H](C)O2)[C@H](C)[C@@H](O[C@@H]2O[C@H](C)C[C@H](N(C)C)[C@H]2O)[C@](C)(O)C[C@@H](C)C(=O)[C@H](C)[C@@H](O)[C@]1(C)O [Erythromycin] + CN1C2=CC=CC=C2N=C3C1=CC=CC3=O [Pyocyanin]	-0.051
CO[C@H]1/C=C/O[C@@]2(C)Oc3c(C)c(O)c4c(O)c(c(/C=N/N5CCN(C)CC5)c(O)c4c3C2=O)NC(=O)/C(C)=C\C=C\[C@H](C)[C@H](O)[C@@H](C)[C@@H](O)[C@@H](C)[C@H](OC(C)=O)[C@@H]1C [Rifampicin] + Oc1cc(Cl)ccc1Oc1ccc(Cl)cc1Cl [Triclosan]	0.0206
CC(=O)NC[C@H]1CN(c2ccc(N3CCOCC3)c(F)c2)C(=O)O1 [Linezolid] + CN(C)C(=O)C(CCN1CCC(O)(c2ccc(Cl)cc2)CC1)(c1ccccc1)c1ccccc1 [Loperamide]	-0.0501
CO[C@@H]1[C@@H](OC(N)=O)[C@@H](O)[C@H](Oc2ccc3c(O)c(NC(=O)c4ccc(O)c(CC=C(C)C)c4)c(=O)oc3c2C)OC1(C)C [Novobiocin] + CN[C@@H]1[C@H](O)[C@H](NC)[C@H]2O[C@@]3(O)C(=O)C[C@@H](C)O[C@H]3O[C@@H]2[C@H]1O [Spectinomycin]	0.0698
CC[C@H]1OC(=O)[C@H](C)[C@@H](O[C@H]2C[C@@](C)(OC)[C@@H](O)[C@H](C)O2)[C@H](C)[C@@H](O[C@@H]2O[C@H](C)C[C@H](N(C)C)[C@H]2O)[C@](C)(O)C[C@@H](C)C(=O)[C@H](C)[C@@H](O)[C@]1(C)O [Erythromycin] + CC[C@H]1OC(=O)[C@H](C)C(=O)[C@H](C)[C@@H](O[C@@H]2O[C@H](C)C[C@H](N(C)C)[C@H]2O)[C@](C)(OC)C[C@@H](C)C(=O)[C@H](C)[C@H]2N(CCCCn3cnc(-c4cccnc4)c3)C(=O)O[C@]12C [Telithromycin]	-0.0283
CC[C@H]1OC(=O)[C@H](C)[C@@H](O[C@H]2C[C@@](C)(OC)[C@@H](O)[C@H](C)O2)[C@H](C)[C@@H](O[C@@H]2O[C@H](C)C[C@H](N(C)C)[C@H]2O)[C@](C)(O)C[C@@H](C)C(=O)[C@H](C)[C@@H](O)[C@]1(C)O [Erythromycin] + Cc1ncc([N+](=O)[O-])n1CCO [Metronidazole]	-0.0396

---

system: B. subtilis 168; experiment: fitness (endpoint OD595 vs no drug) (fraction); higher = more growth; conditions: first compound 0.25 µg/mL; partner 4 µg/mL
readout_label: fitness

compound	readout_label	value_observed
CC(=O)NC[C@H]1CN(c2ccc(N3CCOCC3)c(F)c2)C(=O)O1 [Linezolid] + CN[C@@H]1[C@H](O[C@H]2[C@H](O[C@H]3[C@H](O)[C@@H](O)[C@H](N=C(N)N)[C@@H](O)[C@@H]3N=C(N)N)O[C@@H](C)[C@]2(O)C=O)O[C@@H](CO)[C@H](O)[C@H]1O [Streptomycin]	fitness	0.0931
CC(=O)NC[C@H]1CN(c2ccc(N3CCOCC3)c(F)c2)C(=O)O1 [Linezolid] + Cc1cc(NS(=O)(=O)c2ccc(N)cc2)no1 [Sulfamethoxazol]	fitness	0.0743
CC(=O)NC[C@H]1CN(c2ccc(N3CCOCC3)c(F)c2)C(=O)O1 [Linezolid] + CN[C@@H]1[C@H](O)[C@H](NC)[C@H]2O[C@@]3(O)C(=O)C[C@@H](C)O[C@H]3O[C@@H]2[C@H]1O [Spectinomycin]	fitness	0.0516
CC(=O)NC[C@H]1CN(c2ccc(N3CCOCC3)c(F)c2)C(=O)O1 [Linezolid] + COc1c(N2C[C@@H]3CCCN[C@@H]3C2)c(F)cc2c(=O)c(C(=O)O)cn(C3CC3)c12 [Moxifloxacin]	fitness	0.0237

---

tested on: S. pneumoniae D39V; assay: Bliss interaction score (quartile over a dose matrix) (fitness difference); higher = more antagonism (negative = synergy)

compound	Bliss interaction score
CC[C@H]1OC(=O)[C@H](C)[C@@H](O[C@H]2C[C@@](C)(OC)[C@@H](O)[C@H](C)O2)[C@H](C)[C@@H](O[C@@H]2O[C@H](C)C[C@H](N(C)C)[C@H]2O)[C@](C)(O)C[C@@H](C)C(=O)[C@H](C)[C@@H](O)[C@]1(C)O [Erythromycin] + Cn1nnc(-c2ccc(-c3ccc(N4C[C@H](CO)OC4=O)cc3F)cn2)n1 [Tedizolid]	0.0787
CC(=O)NC[C@H]1CN(c2ccc(N3CCOCC3)c(F)c2)C(=O)O1 [Linezolid] + CC1(C)S[C@@H]2[C@H](NC(=O)Cc3ccccc3)C(=O)N2[C@H]1C(=O)O [PenicillinG]	0.0505
CN[C@@H]1[C@H](O[C@H]2[C@H](O[C@H]3[C@H](O)[C@@H](O)[C@H](N=C(N)N)[C@@H](O)[C@@H]3N=C(N)N)O[C@@H](C)[C@]2(O)C=O)O[C@@H](CO)[C@H](O)[C@H]1O [Streptomycin] + CC[C@H]1OC(=O)[C@H](C)C(=O)[C@H](C)[C@@H](O[C@@H]2O[C@H](C)C[C@H](N(C)C)[C@H]2O)[C@](C)(OC)C[C@@H](C)C(=O)[C@H](C)[C@H]2N(CCCCn3cnc(-c4cccnc4)c3)C(=O)O[C@]12C [Telithromycin]	-0.0487
CO[C@@]12[C@H](COC(N)=O)C3=C(C(=O)C(C)=C(N)C3=O)N1C[C@@H]1N[C@@H]12 [MitomycinC] + O=C1CN(/N=C/c2ccc([N+](=O)[O-])o2)C(=O)N1 [Nitrofurantoin]	-0.145
